Tested on: E. coli DH5α (pHSG398)
Construct: DH5α (pHSG398) empty vector control
protocol.details: microbe, parasite or virus in culture
Parameters: CLSI microdilution susceptibility test, minimum inhibitory concentration of bacterial growth
conditions: Escherichia coli; empty vector control; read-out: MIC (μg/ml) / E. coli DH5α (pHSG398)

{"compound": "CO/N=C(\\C(=O)N[C@@H]1C(=O)N2C(C(=O)O)=C(COC(C)=O)CS[C@H]12)c1csc(N)n1", "tgt": "E. coli DH5α (pHSG398)", "MIC": "≤ 0.25 µg/mL"}
{"compound": "C[C@H]1[C@H](NC(=O)/C(=N\\OC(C)(C)C(=O)O)c2csc(N)n2)C(=O)N1S(=O)(=O)O", "tgt": "E. coli DH5α (pHSG398)", "MIC": "≤ 0.25 µg/mL"}
{"compound": "C[C@@H](O)[C@H]1C(=O)N2C(C(=O)O)=C(SCCN=CN)C[C@H]12", "tgt": "E. coli DH5α (pHSG398)", "MIC": "≤ 0.25 µg/mL"}
{"compound": "C[C@@H](O)[C@H]1C(=O)N2C(C(=O)O)=C(S[C@@H]3CN[C@H](C(=O)N(C)C)C3)[C@H](C)[C@H]12", "tgt": "E. coli DH5α (pHSG398)", "MIC": "≤ 0.25 µg/mL"}
{"compound": "CC1(C)S[C@@H]2[C@H](NC(=O)[C@H](N)c3ccccc3)C(=O)N2[C@H]1C(=O)O", "tgt": "E. coli DH5α (pHSG398)", "MIC": "2 µg/mL"}
{"compound": "CO/N=C(\\C(=O)N[C@@H]1C(=O)N2C(C(=O)[O-])=C(C[n+]3cccc4c3CCC4)CS[C@H]12)c1csc(N)n1", "tgt": "E. coli DH5α (pHSG398)", "MIC": "≤ 0.25 µg/mL"}
{"compound": "CO/N=C(\\C(=O)N[C@@H]1C(=O)N2C(C(=O)[O-])=C(C[n+]3ccn4ncccc43)CS[C@H]12)c1nsc(N)n1", "tgt": "E. coli DH5α (pHSG398)", "MIC": "≤ 0.25 µg/mL"}
{"compound": "CO/N=C(\\C(=O)N[C@@H]1C(=O)N2C(C(=O)O)=C(CSc3nc(=O)c(O)nn3C)CS[C@H]12)c1csc(N)n1", "tgt": "E. coli DH5α (pHSG398)", "MIC": "≤ 0.25 µg/mL"}
{"compound": "CC1=C(C(=O)O)N2C(=O)[C@@H](NC(=O)[C@H](N)C3=CCC=CC3)[C@H]2SC1", "tgt": "E. coli DH5α (pHSG398)", "MIC": "16 µg/mL"}
{"compound": "CO/N=C(\\C(=O)N[C@@H]1C(=O)N2C(C(=O)O)=C(COC(N)=O)CS[C@H]12)c1ccco1", "tgt": "E. coli DH5α (pHSG398)", "MIC": "4 µg/mL"}
{"compound": "C[C@@H](O)[C@H]1C(=O)N2C(C(=O)O)=C(S[C@@H]3CN[C@H](CNS(N)(=O)=O)C3)[C@H](C)[C@H]12", "tgt": "E. coli DH5α (pHSG398)", "MIC": "≤ 0.25 µg/mL"}
{"compound": "CO[C@@]1(NC(=O)Cc2cccs2)C(=O)N2C(C(=O)O)=C(COC(N)=O)CS[C@@H]21", "tgt": "E. coli DH5α (pHSG398)", "MIC": "2 µg/mL"}
{"compound": "CC(C)(O/N=C(\\C(=O)N[C@@H]1C(=O)N2C(C(=O)[O-])=C(C[n+]3ccccc3)CS[C@H]12)c1csc(N)n1)C(=O)O", "tgt": "E. coli DH5α (pHSG398)", "MIC": "≤ 0.25 µg/mL"}
{"compound": "CC1(C)S[C@@H]2[C@H](NC(=O)Cc3ccccc3)C(=O)N2[C@H]1C(=O)O", "tgt": "E. coli DH5α (pHSG398)", "MIC": "32 µg/mL"}
{"compound": "CO[C@@]1(NC(=O)C(C(=O)O)c2ccc(O)cc2)C(=O)N2C(C(=O)O)=C(CSc3nnnn3C)CO[C@@H]21 (stereo partly drawn)", "tgt": "E. coli DH5α (pHSG398)", "MIC": "≤ 0.25 µg/mL"}
